Sourced from BindingDB's records for doi:10.1007/bf02245606

What follows is a record of Ki for Alpha-2C adrenergic receptor (Rattus norvegicus).
recorded-metric: Ki (nM)

CN1CC2c3ccccc3Oc3ccc(Cl)cc3C2C1 (centres undefined) [NSC_163091]	3.7
O=C1NCN(c2ccccc2)C12CCN(CCCC(c1ccc(F)cc1)c1ccc(F)cc1)CC2	5000
O=C1NCCN1CCN1CCC(c2cn(-c3ccc(F)cc3)c3ccc(Cl)cc23)CC1	1680
Cc1nc2n(c(=O)c1CCN1CCC(c3noc4cc(F)ccc34)CC1)CCCC2O (centres undefined) [9-OH-risperidone]	17

* * *

# target-or-system: 5-hydroxytryptamine receptor 1A (Rattus norvegicus, UniProt P19327)
# Sequence (P19327 whole entry): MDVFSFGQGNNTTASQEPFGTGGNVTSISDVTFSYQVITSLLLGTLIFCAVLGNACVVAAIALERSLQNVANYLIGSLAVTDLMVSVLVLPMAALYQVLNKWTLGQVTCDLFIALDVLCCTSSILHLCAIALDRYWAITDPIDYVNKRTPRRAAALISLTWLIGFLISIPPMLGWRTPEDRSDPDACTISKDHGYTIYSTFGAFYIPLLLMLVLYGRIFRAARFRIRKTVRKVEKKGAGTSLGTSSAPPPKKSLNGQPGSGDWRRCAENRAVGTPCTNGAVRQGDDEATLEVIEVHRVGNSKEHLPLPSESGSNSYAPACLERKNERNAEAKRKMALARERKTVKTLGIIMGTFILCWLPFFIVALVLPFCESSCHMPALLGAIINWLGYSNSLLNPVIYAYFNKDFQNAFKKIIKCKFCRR
pKi: −log10 of the molar value.
recorded-metric: pKi

O=C1NCN(c2ccccc2)C12CCN(CCCC(c1ccc(F)cc1)c1ccc(F)cc1)CC2	6.96
O=C1NCN(c2ccccc2)C12CCN(CC1COc3ccccc3O1)CC2 (configuration not stated)	9.08
